This collection of values is drawn from a melting point compilation (Tetko et al.; mined from patent text by program, amines drawn as free bases though some values may be those of a salt).

Known melting point of a selection of compounds

// worked examples, melting point included
{"compound": "CCCN1N=C2C(=Cc3ccccc3)CS(=O)(=O)CC2C1c1ccccc1 (centres undefined)", "melting point": "197 to 199 °C"}
{"compound": "Cc1c(C)c(NCc2ccccc2)c2c(c1C)C(=O)C(C)(C)O2", "melting point": "108 to 109 °C"}
{"compound": "COc1cc(CNc2c(NC(C)(C)C)c(=O)c2=O)cc(OC)c1", "melting point": "222 to 223 °C"}
{"compound": "CCOc1ccc2c(c1)n(C1CCCCC1)c(=O)n2S(=O)(=O)c1ccc(C(=O)NC23CC4CC(CC(C4)C2)C3)cc1OC", "melting point": "228 °C"}

Now for another entry.
Problem: Would you kindly share the measured melting point for `CN(C)C1=NS(=O)(=O)N=C1N[C@@H]1c2cc(OC(F)(F)F)ccc2OC(C)(C)[C@H]1O` ?
Result: 135 to 140 °C

---

reportedEndpoint: melting point

Use these answered entries as a reference point.
{"compound": "O=C1c2ccccc2C(=O)N1OCCCN1CCN(c2ccc3ccccc3n2)CC1", "testResult": "158 to 160 °C"}
{"compound": "O=[N+]([O-])c1ccccc1SN(CCO)CCO", "testResult": "82 to 86 °C"}
{"compound": "COc1ccc(-c2cc(=O)n(Cc3cccnc3)nc2-c2ccc(OC)cc2)cc1", "testResult": "167 to 168 °C"}

Problem: Suppose we examine the compound `CC(C)(C)C(=O)CC(=O)c1cccc(C(=O)CC(=O)C(C)(C)C)c1` ; what melting point value has been reported?
Result: 106 to 108 °C

Problem: Record request: melting point value, item `Cc1nn(-c2cc(OC(C)C)c(Cl)cc2F)c(=O)[nH]1`
Result: 120 to 124 °C

Problem: # query: melting point of entry `Cn1cc(SCc2ccccc2)c(=O)c(-c2ccccc2)c1`
Result: 155 to 157 °C

Problem: Bench note: what melting point did `CCOCc1nc2c(N)nc(C)c(C)c2n1NCCCS(C)(=O)=O` show?
Result: 150 to 155 °C

Problem: Tell me the measured melting point of CC(=O)Nc1ccn([C@@H]2C[C@H](OC(C)=O)[C@@H](O)[C@H]2O)c(=O)n1 (racemic) , please.
Result: 98 to 100 °C

---

Measured melting point, listed per entry for reference.

Worked examples follow.
{"compound": "CCOC(=O)C1=C(COC2CCNCC2)NC(C)=C(C(=O)OC)C1c1ccccc1Cl (stereo not given)", "reportedEndpoint": "melting point", "testResult": "175 to 176 °C"}
{"compound": "NC(=O)N(O)CC=Cc1cccc(F)c1Sc1ccc(Cl)cc1", "reportedEndpoint": "melting point", "testResult": "125 to 127 °C"}

Problem: Which value of melting point has been reported for `O=C(OCc1ccccc1)c1ncoc1CCNC(=O)[C@H](Cc1cccs1)N[C@@H](CCc1ccccc1)C(=O)OCc1ccccc1` in the records?
Result: 81 to 83 °C

Problem: State the recorded melting point for this entry: `Nc1ncc2[nH]c3ccccc3c2n1`
Result: 258 to 260 °C

Problem: melting point lookup needed for COC(=O)Cc1ccc(OCCNC(=O)C2Cc3ccccc3N2S(=O)(=O)c2ccc(-c3cccc(C(F)(F)F)c3)c(Cl)c2)cc1 (stereo not given) , thanks.
Result: 60 °C
